assay: pKa, pI and % salt of peptidic buffers; format: physicochemical; details: Table 2, first acidic pKa
Square brackets hold non-standard residues; d marks the D form. Peptide text beside a SMILES is read from it. Orn = NCCC[C@H](N)C(=O)O
value type: pka A (acidic pKa)

> print(dat)
                                   compound          value.type  recorded.number
1  NCC(=O)N[C@@H](CC(=O)O)C(=O)O [Gly-Asp] (H-Gly-Asp-OH; N-terminus and C-terminus assumed)  pka A (acidic pKa)             2.81
2  C[C@H](NC(=O)[C@@H](N)Cc1c[nH]cn1)C(=O)O [His-Ala] (H-His-Ala-OH; N-terminus and C-terminus assumed)  pka A (acidic pKa)             2.48
3  C[C@@H](O)[C@H](NC(=O)[C@@H](N)Cc1c[nH]cn1)C(=O)O [His-Thr] (H-His-Thr-OH; N-terminus and C-terminus assumed)  pka A (acidic pKa)             2.98
4  N[C@@H](Cc1c[nH]cn1)C(=O)N[C@@H](CCC(=O)O)C(=O)O [His-Glu] (H-His-Glu-OH; N-terminus and C-terminus assumed)  pka A (acidic pKa)             2.30
5  NCCC[C@H](NC(=O)[C@@H](N)Cc1c[nH]cn1)C(=O)O [His-Ornithine] (H-His-[Orn]-OH; N-terminus and C-terminus assumed)  pka A (acidic pKa)             2.82
6           Cn1cncc1C[C@H](NC(=O)CCN)C(=O)O  pka A (acidic pKa)             2.64
7  NCCC[C@H](N)C(=O)N[C@@H](Cc1c[nH]cn1)C(=O)O  pka A (acidic pKa)             2.42

----------
experiment: pKa, pI and % salt of peptidic buffers; type: physicochemical; conditions: Table 2, first acidic pKa
Square brackets hold non-standard residues; d marks the D form. Peptide text beside a SMILES is read from it. Cit = NC(=O)NCCC[C@H](N)C(=O)O
value type: pka A (acidic pKa)

> print(dat)
                                    compound  recorded.number
 1  N[C@@H](Cc1c[nH]cn1)C(=O)N[C@@H](CC(=O)O)C(=O)O [His-Asp] (H-His-Asp-OH; N-terminus and C-terminus assumed)             2.28
 2  NCCCC[C@H](N)C(=O)N[C@@H](CC(=O)O)C(=O)O [Lys-Asp] (H-Lys-Asp-OH; N-terminus and C-terminus assumed)             2.64
 3  NCCCC[C@H](N)C(=O)N[C@@H](CCC(=O)O)C(=O)O [Lys-Glu] (H-Lys-Glu-OH; N-terminus and C-terminus assumed)             2.74
 4  CC(C)C[C@H](N)C(=O)N[C@@H](Cc1c[nH]cn1)C(=O)O [Leu-His] (H-Leu-His-OH; N-terminus and C-terminus assumed)             2.42
 5  NC(=O)C[C@H](NC(=O)[C@@H](N)Cc1c[nH]cn1)C(=O)O [His-Asn] (H-His-Asn-OH; N-terminus and C-terminus assumed)             2.62
 6  NC(=O)NCCC[C@H](N)C(=O)N[C@@H](Cc1c[nH]cn1)C(=O)O [Citrulline-His] (H-[Cit]-His-OH; N-terminus and C-terminus assumed)             2.42
 7  NCC(O)CC[C@H](N)C(=O)N[C@@H](Cc1c[nH]cn1)C(=O)O (stereo partly drawn) [Hydroxylysine-His]             2.42
 8  CC[C@H](C)[C@H](NC(=O)[C@@H](N)Cc1c[nH]cn1)C(=O)O [His-Isoleucine] (H-His-Ile-OH; N-terminus and C-terminus assumed)             3.13
 9  N[C@@H](Cc1c[nH]cn1)C(=O)N1CCC[C@H]1C(=O)O [His-Pro]             2.62
10  NC(=O)CC[C@H](NC(=O)[C@@H](N)Cc1c[nH]cn1)C(=O)O [His-Gln] (H-His-Gln-OH; N-terminus and C-terminus assumed)             2.93
11  NCCC(=O)N[C@@H](Cc1cnc[nH]1)C(=O)O [Beta-Alanylhistidine]             2.60
12  NCCC(=O)N[C@@H](Cc1cnc[nH]1)C(=O)O [Carnosine]             2.64
13  N[C@@H](CCC(=O)O)C(=O)N[C@@H](Cc1c[nH]cn1)C(=O)O [Glu-His] (H-Glu-His-OH; N-terminus and C-terminus assumed)             2.45
14  C[C@H](N)C(=O)N[C@@H](Cc1c[nH]cn1)C(=O)O [Ala-His] (H-Ala-His-OH; N-terminus and C-terminus assumed)             2.42
15  NCC(O)CC[C@H](NC(=O)[C@@H](N)Cc1c[nH]cn1)C(=O)O (stereo partly drawn) [His-Hydroxylysine]             3.05

----------
assay: pKa, pI and % salt of peptidic buffers; type: physicochemical; conditions: Table 2, first basic pKa
Square brackets hold non-standard residues; d marks the D form. Peptide text beside a SMILES is read from it. Cit = NC(=O)NCCC[C@H](N)C(=O)O
value type: pka B (basic pKa)

> print(dat)
                                   compound  recorded.number
1  N[C@@H](CC(=O)O)C(=O)N[C@@H](CC(=O)O)C(=O)O [Asp-Asp] (H-Asp-Asp-OH; N-terminus and C-terminus assumed)             8.26
2  NCCCC[C@H](N)C(=O)N[C@@H](CCC(=O)O)C(=O)O [Lys-Glu] (H-Lys-Glu-OH; N-terminus and C-terminus assumed)             7.92
3  N[C@@H](Cc1ccc(O)cc1)C(=O)N[C@@H](Cc1c[nH]cn1)C(=O)O [Tyr-His] (H-Tyr-His-OH; N-terminus and C-terminus assumed)             6.71
4  NC(=O)NCCC[C@H](NC(=O)[C@@H](N)Cc1c[nH]cn1)C(=O)O [His-Citrulline] (H-His-[Cit]-OH; N-terminus and C-terminus assumed)             6.10
5  O=C(O)[C@H](Cc1c[nH]cn1)NC(=O)[C@@H]1CC(O)CN1 (stereo partly shown) [Hydroxyproline-His]             6.71
6  C[C@H](N)C(=O)N[C@@H](Cc1c[nH]cn1)C(=O)O [Ala-His] (H-Ala-His-OH; N-terminus and C-terminus assumed)             6.71
7  NCCCC[C@H](NC(=O)[C@@H](N)Cc1c[nH]cn1)C(=O)O [His-Lys] (H-His-Lys-OH; N-terminus and C-terminus assumed)             6.10

----------
test: pKa, pI and % salt of peptidic buffers; assay type: physicochemical; conditions: Table 2, first acidic pKa
Peptide text beside a SMILES is read from it.
value type: pka A (acidic pKa)

> print(dat)
                                   compound  recorded.number
1  N[C@@H](CC(=O)O)C(=O)N[C@@H](Cc1c[nH]cn1)C(=O)O [Asp-His] (H-Asp-His-OH; N-terminus and C-terminus assumed)             2.45
2  N[C@@H](Cc1c[nH]cn1)C(=O)NCC(=O)O [His-Gly] (H-His-Gly-OH; N-terminus and C-terminus assumed)             2.41
3  CC(C)[C@H](N)C(=O)N[C@@H](Cc1c[nH]cn1)C(=O)O [Val-His] (H-Val-His-OH; N-terminus and C-terminus assumed)             3.09

----------
test: pKa, pI and % salt of peptidic buffers; assay type: physicochemical; conditions: Table 2, second basic pKa
Square brackets hold non-standard residues; d marks the D form. Peptide text beside a SMILES is read from it. Orn = NCCC[C@H](N)C(=O)O
value type: pka B (basic pKa)

> print(dat)
                                    compound         value.type  recorded.number
 1  CC(C)[C@H](NC(=O)[C@@H](N)Cc1c[nH]cn1)C(=O)O [His-Val] (H-His-Val-OH; N-terminus and C-terminus assumed)  pka B (basic pKa)             7.80
 2  NCCC[C@H](NC(=O)[C@@H](N)Cc1c[nH]cn1)C(=O)O [His-Ornithine] (H-His-[Orn]-OH; N-terminus and C-terminus assumed)  pka B (basic pKa)             7.80
 3  C[C@H](NC(=O)[C@@H](N)Cc1c[nH]cn1)C(=O)O [His-Ala] (H-His-Ala-OH; N-terminus and C-terminus assumed)  pka B (basic pKa)             7.80
 4  N[C@@H](Cc1c[nH]cn1)C(=O)N[C@@H](CCC(=O)O)C(=O)O [His-Glu] (H-His-Glu-OH; N-terminus and C-terminus assumed)  pka B (basic pKa)             8.07
 5  NCC(O)CC[C@H](NC(=O)[C@@H](N)Cc1c[nH]cn1)C(=O)O (stereo partly shown) [His-Hydroxylysine]  pka B (basic pKa)             7.80
 6  N[C@@H](Cc1c[nH]cn1)C(=O)N[C@@H](Cc1ccc(O)cc1)C(=O)O [His-Tyr] (H-His-Tyr-OH; N-terminus and C-terminus assumed)  pka B (basic pKa)             7.80
 7  N[C@@H](Cc1c[nH]cn1)C(=O)N[C@@H](Cc1ccccc1)C(=O)O [His-Phe] (H-His-Phe-OH; N-terminus and C-terminus assumed)  pka B (basic pKa)             7.80
 8  NCCCC[C@H](NC(=O)[C@@H](N)Cc1c[nH]cn1)C(=O)O [His-Lys] (H-His-Lys-OH; N-terminus and C-terminus assumed)  pka B (basic pKa)             7.80
 9  CC[C@H](C)[C@H](NC(=O)[C@@H](N)Cc1c[nH]cn1)C(=O)O [His-Isoleucine] (H-His-Ile-OH; N-terminus and C-terminus assumed)  pka B (basic pKa)             7.80
10  N[C@@H](Cc1c[nH]cn1)C(=O)N1CC(O)C[C@H]1C(=O)O (stereo partly shown) [His-Hydroxyproline]  pka B (basic pKa)             7.80
11  CSCC[C@H](NC(=O)[C@@H](N)Cc1c[nH]cn1)C(=O)O [His-Met] (H-His-Met-OH; N-terminus and C-terminus assumed)  pka B (basic pKa)             7.80
12  N[C@@H](Cc1c[nH]cn1)C(=O)N[C@@H](CO)C(=O)O [His-Ser] (H-His-Ser-OH; N-terminus and C-terminus assumed)  pka B (basic pKa)             7.80
13  CC(C)[C@H](N)C(=O)N[C@@H](Cc1c[nH]cn1)C(=O)O [Val-His] (H-Val-His-OH; N-terminus and C-terminus assumed)  pka B (basic pKa)             7.94
14  C[C@@H](O)[C@H](NC(=O)[C@@H](N)Cc1c[nH]cn1)C(=O)O [His-Thr] (H-His-Thr-OH; N-terminus and C-terminus assumed)  pka B (basic pKa)             7.80
15  CC(C)C[C@H](NC(=O)[C@@H](N)Cc1c[nH]cn1)C(=O)O [His-Leu] (H-His-Leu-OH; N-terminus and C-terminus assumed)  pka B (basic pKa)             7.80
16  N[C@@H](Cc1c[nH]c2ccccc12)C(=O)N[C@@H](Cc1c[nH]cn1)C(=O)O [Trp-His] (H-Trp-His-OH; N-terminus and C-terminus assumed)  pka B (basic pKa)             7.90
